# credit: patent US7122621B2

System: stomach carcinoma (AGS) cells
assay text: cells
measurement conditions: Homo sapiens, AGS, 24 h, read-out: IC50, Stomach Carcinoma AGS
measure: IC50 (µM)
Answer in µM, number only, no unit symbol.

Query :: Item COc1cccc2c1C(=O)c1c(O)c3c(c(O)c1C2=O)C[C@@](O)(C(=O)CO)C[C@@H]3O[C@H]1C[C@H](N)[C@H](O)[C@H](C)O1 has what recorded IC50?
Result :: 4.1

* * *

System: HL-60
assay text: cells
measurement conditions: Homo sapiens, HL-60, 24 h, read-out: IC50, Cancer Cells HL-60
measure: log10(IC50) (log10 of the value in nM)
A value of 2 here means IC50 of 100 in nM, since values are log10.

Solved cases below.
CC[C@]1(O)C[C@H]2CN(CCc3c([nH]c4ccccc34)[C@@](C(=O)OC)(c3cc4c(cc3OC)N(C=O)[C@H]3[C@@](O)(C(=O)OC)[C@H](OC(C)=O)[C@]5(CC)C=CCN6CC[C@]43[C@@H]65)C2)C1 [VCR, vincristine]; 1.53
CN(Cc1cnc2nc(N)nc(N)c2n1)c1ccc(C(=O)N[C@@H](CCC(=O)O)C(=O)O)cc1 [MTX, methotrexate]; 1.26
Nc1ccn([C@@H]2O[C@H](CO)[C@@H](O)[C@@H]2O)c(=O)n1 [Ara-C, cytarabine]; 1.90
Sc1ncnc2nc[nH]c12 [6-MP, 6-mercaptopurine]; 2.63
COc1cccc2c1C(=O)c1c(O)c3c(c(O)c1C2=O)C[C@@](O)(C(=O)CO)C[C@@H]3O[C@H]1C[C@H](N)[C@H](O)[C@H](C)O1 [Doxorubicin, doxorubicin]; 2.28

Then this compound:
Query :: Would you kindly share the measured log10(IC50) for O=c1[nH]cc(F)c(=O)[nH]1 [5-FU, 5-fluorouracil] ?
Result :: 3.88
